- Run description: Cytotoxicity against MNC at 3.1 to 50 ug/mL
Reported metric: Activity

CC(C)=CCc1c(O)c(CC=C(C)C)c2oc3c(O)cc(O)cc3c(=O)c2c1O [STAUDTIIXANTHONE A]    Non-toxic
COc1cc2oc3c4c(cc(O)c3c(=O)c2c2c1OC(C)(C)CC2)OC(C)(C)CC4 [STAUDTIIXANTHONE D]    Non-toxic
CC(C)=CCc1c2c(c3oc4c(O)cc(O)cc4c(=O)c3c1O)C=CC(C)(C)O2 [STAUDTIIXANTHONE C]    Non-toxic
CC(C)=CCc1c2c(c(O)c3c(=O)c4cc(O)cc(O)c4oc13)C=CC(C)(C)O2 [STAUDTIIXANTHONE B]    Non-toxic
